- TARGET_OF_ASSAY: biotinylated labeled human GPC3 protein (produced in-house) (human, UniProt P51654 25-559, limits assumed, biotinylated (Dojindo, Cat. No. LK03); sites not stated)
- MEASUREMENT_PROTOCOL: ELISA, biotinylated human GPC3 protein
Binary classification by OD450 at 0.0008 nM, with 0.1 OD450 as an inclusive lower bound for Met; all other cases are Not met.

Field: example entries. Status: answers known.
BINDER: hAb007LH2L1a (antibody, human IgG1, V domains shown, Humanized F3.81.19; VH H2 + VL L1a; expressed as human IgG1) VH: EVQLVQSGAEVKKPGSSVKVSCKASGYTFTDYEMHWVRQAPGQGLEWMGTIDPETGNTAYNQKFKGRVTITADKSTSTAYMELSSLRSEDTAVYYCTRPYSLTYWGQGTLVTVSS VL: DIVMTQTPLSLPVTPGEPASISCRSSQSFVHSDGDTYLQWYLQKPGQSPQLLIYKVSNRFSGVPDRFSGSGSGTDFTLKISRVEAEDVGVYYCFQGSHVPYTFGQGTKLEIK
ASSIGNED_CLASS: Not met
//
BINDER: hAb006LH1L1b (antibody, human IgG1, V domains shown, Humanized F3.38.7; VH H1 + VL L1b; expressed as human IgG1) VH: EVQLVQSGAEVKKPGSSVKVSCKASGYTFSDYEIHWVRQAPGQGLEWMGAIDPKTGNTAYNQKFMGRVTITADKSTSTAYMELSSLRSEDTAVYYCTRYFSFAYWGQGTLVTVSS VL: DIVMTQTPLSLPVTPGEPASISCRSSQTFVHSNANTYLQWYLQKPGQSPQLLIYKVSNRFSGVPDRFSGSGSGTDFTLKISRVEAEDVGVYYCFQGSHVPYTFGQGTKLEIK
ASSIGNED_CLASS: Met
//
BINDER: hAb003LH1L1 (antibody, human IgG1, V domains shown, Humanized F2.154.1; VH H1 + VL L1; expressed as human IgG1) VH: EVQLVQSGAEVKKPGSSVKVSCKASGYTFSDYEMHWVRQAPGQGLEWMGTIDPETGNTAYTQKFMDRVTITADKSTSTAYMELSSLRSEDTAVYYCTRGYSFTYWGQGTLVTVSS VL: DIVMTQTPLSLPVTPGEPASISCRSSQNIVHSNGNTYLQWYLQKPGQSPQLLIFKVSNRFSGVPDRFSGSGSGTDFTLKISRVEAEDVGVYYCFQGSHVPFTFGQGTKLEIK
ASSIGNED_CLASS: Met
//
BINDER: hAb001H2L1b (antibody, human IgG1, V domains shown, Humanized F2.169.2; VH H2 + VL L1b; expressed as human IgG1) VH: EVQLVESGGGLVQPGGSLRLSCAASGFSFNTNAMNWVRQAPGKGLEWVGRIRSKSNNYATYYADSVKDRFTISRDDSKSSLYLQMNSLKTEDTAVYYCVRDGYYVLFAYWGQGTLVTVSS VL: DIVMTQTPLSLPVTPGEPASISCRFSQSIVNSNANTYLEWFLQKPGQSPQLLIYKVSNRFSGVPDRFSGSGSGTDFTLKISRVEAEDVGVYYCFQGSHVPFTFGQGTKLEIK
ASSIGNED_CLASS: Met
//
BINDER: hAb001H1L1a (antibody, human IgG1, V domains shown, Humanized F2.169.2; VH H1 + VL L1a; expressed as human IgG1) VH: EVQLVESGGGLVQPGGSLRLSCAASGFSFNTNAMNWVRQAPGKGLEWVGRIRSKSNNYATYYADSVKDRFTISRDDSKNSLYLQMNSLKTEDTAVYYCVRDGYYVLFAYWGQGTLVTVSS VL: DIVMTQTPLSLPVTPGEPASISCRFSQSIVNSDGNTYLEWFLQKPGQSPQLLIYKVSNRFSGVPDRFSGSGSGTDFTLKISRVEAEDVGVYYCFQGSHVPFTFGQGTKLEIK
ASSIGNED_CLASS: Met
//
BINDER: hAb003LH2L1a (antibody, human IgG1, V domains shown, Humanized F2.154.1; VH H2 + VL L1a; expressed as human IgG1) VH: EVQLVQSGAEVKKPGSSVKVSCKASGYRFTDYEMHWVRQAPGQGLEWMGTIDPETGNTAYTQKFMDRVTITADKSTSTAYMELSSLRSEDTAVYYCTRGYSFTYWGQGTLVTVSS VL: DIVMTQTPLSLPVTPGEPASISCRSSQNIVHSDGNTYLQWYLQKPGQSPQLLIFKVSNRFSGVPDRFSGSGSGTDFTLKISRVEAEDVGVYYCFQGSHVPFTFGQGTKLEIK
ASSIGNED_CLASS: Not met
//
BINDER: hAb007LH3L1 (antibody, human IgG1, V domains shown, Humanized F3.81.19; VH H3 + VL L1; expressed as human IgG1) VH: EVQLVQSGAEVKKPGSSVKVSCKASGYTFTDYEMHWVRQAPGQGLEWMGTIDPETGNTAYNQKFKGRVTLTADKSTSTAYMELSSLRSEDTAVYYCTRPYSLTYWGQGTLVTVSS VL: DIVMTQTPLSLPVTPGEPASISCRSSQSFVHSNGDTYLQWYLQKPGQSPQLLIYKVSNRFSGVPDRFSGSGSGTDFTLKISRVEAEDVGVYYCFQGSHVPYTFGQGTKLEIK
ASSIGNED_CLASS: Not met
//
BINDER: hAb006LH3L1a (antibody, human IgG1, V domains shown, Humanized F3.38.7; VH H3 + VL L1a; expressed as human IgG1) VH: EVQLVQSGAEVKKPGSSVKVSCKASGYTFTDYEIHWVRQAPGQGLEWMGAIDPKTGNTAYNQKFMGRVTLTADKSTSTAYMELSSLRSEDTAVYYCTRYFSFAYWGQGTLVTVSS VL: DIVMTQTPLSLPVTPGEPASISCRSSQTFVHSDGNTYLQWYLQKPGQSPQLLIYKVSNRFSGVPDRFSGSGSGTDFTLKISRVEAEDVGVYYCFQGSHVPYTFGQGTKLEIK
ASSIGNED_CLASS: Not met

Ask: Record hAb003LH1L1b (antibody, human IgG1, V domains shown, Humanized F2.154.1; VH H1 + VL L1b; expressed as human IgG1) VH: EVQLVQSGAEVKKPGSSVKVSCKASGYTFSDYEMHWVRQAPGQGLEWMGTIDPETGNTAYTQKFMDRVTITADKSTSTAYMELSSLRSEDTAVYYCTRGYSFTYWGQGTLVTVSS VL: DIVMTQTPLSLPVTPGEPASISCRSSQNIVHSNRNTYLQWYLQKPGQSPQLLIFKVSNRFSGVPDRFSGSGSGTDFTLKISRVEAEDVGVYYCFQGSHVPFTFGQGTKLEIK ; criterion: OD450 at 0.0008 nM no lower than 0.1 OD450. Met?
Reply: Met

Ask: What do you have for hAb005LH1L1b (antibody, human IgG1, V domains shown, Humanized F3.54.12; VH H1 + VL L1b; expressed as human IgG1) VH: EVQLVQSGAEVKKPGASVKVSCKASGYTFTDYEMHWVRQAPGQGLEWMGAIDPETGNTAYIQKFKGRVTMTTDKSTSTAYMELRSLRSDDTAVYYCTRFYSYSHWGQGTTVTVSS VL: DIVMTQTPLSLPVTPGEPASISCRSSQSLVHSNRNTYLHWYLQKPGQSPQLLIYKVSNRFSGVPDRFSGSGSGTDFTLKISRVEAEDVGVYYCSQNTHVPPTFGGGTKVEIK ?
Reply: Not met

The origin of these recorded values is patent US20260116991A1.
